Just for reference, the supplement of paper PMC10598134 is where these values come from.

Readings of collision cross section for the listed sequences
- EXPERIMENTAL_PROTOCOL: collision cross section of modified peptide (TIMS, N2, iRT-aligned); higher = larger / more extended gas-phase ion
- RUN_CONDITIONS: charge state: 3; modification: Trimethyl (K)
ENDPOINT: collision cross section (Å²)

>>> result_value("LQLEIDQKK [_LQLEIDQK(Trimethyl (K))K_]")
433.51
>>> result_value("ISSNFSSIIAEKLR [_ISSNFSSIIAEK(Trimethyl (K))LR_]")
499.26
>>> result_value("IDLPAENSNSETIIITGKR [_IDLPAENSNSETIIITGK(Trimethyl (K))R_]")
576.62
>>> result_value("VDVEVPDVSLEGPEGKLK [_VDVEVPDVSLEGPEGK(Trimethyl (K))LK_]")
507.27

---

- EXPERIMENTAL_PROTOCOL: collision cross section of modified peptide (TIMS, N2, iRT-aligned); higher = larger / more extended gas-phase ion
- RUN_CONDITIONS: charge state: 2; modification: Methyl (K)
ENDPOINT: collision cross section (Å²)

>>> result_value("TTEETSKPK [_TTEETSK(Methyl (K))PK_]")
342.29
>>> result_value("SPSDSGYSYETIGKTTK [_SPSDSGYSYETIGK(Methyl (K))TTK_]")
466.86
>>> result_value("SSGPGGQNVNKVNSK [_SSGPGGQNVNK(Methyl (K))VNSK_]")
397.83
>>> result_value("GSLEKGSPEDK [_GSLEK(Methyl (K))GSPEDK_]")
357.31

---

Listing of recorded collision cross section by entry.
- EXPERIMENTAL_PROTOCOL: collision cross section of modified peptide (TIMS, N2, iRT-aligned); higher = larger / more extended gas-phase ion
- RUN_CONDITIONS: charge state: 3; modification: Malonyl
ENDPOINT: collision cross section (Å²)

>>> result_value("PANEKATDDYHYEK [_PANEK(Malonyl)ATDDYHYEK_]")
498.89
>>> result_value("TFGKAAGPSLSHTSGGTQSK [_TFGK(Malonyl)AAGPSLSHTSGGTQSK_]")
514.27
>>> result_value("DSSPTTNSKLSALQR [_DSSPTTNSK(Malonyl)LSALQR_]")
494.68

---

- EXPERIMENTAL_PROTOCOL: collision cross section of modified peptide (TIMS, N2, iRT-aligned); higher = larger / more extended gas-phase ion
- RUN_CONDITIONS: charge state: 3; modification: Glutarylation
ENDPOINT: collision cross section (Å²)

>>> result_value("VDIDVPDVNIEGPDAKLK [_VDIDVPDVNIEGPDAK(Gluratylation)LK_]")
509.66
>>> result_value("VQGGALEDSQLVAGVAFKK [_VQGGALEDSQLVAGVAFK(Gluratylation)K_]")
564.26
>>> result_value("TEVLSPNSKVESK [_TEVLSPNSK(Gluratylation)VESK_]")
453.95
>>> result_value("DFDTALKHYDK [_DFDTALK(Gluratylation)HYDK_]")
469.01
>>> result_value("SSFAYKDQNENR [_SSFAYK(Gluratylation)DQNENR_]")
472.81
>>> result_value("TPNLYIYSKK [_TPNLYIYSK(Gluratylation)K_]")
451.21
>>> result_value("DYSAPVNFISAGLKK [_DYSAPVNFISAGLK(Gluratylation)K_]")
535.69
>>> result_value("DAIHFYNKSLAEHR [_DAIHFYNK(Gluratylation)SLAEHR_]")
515.3
>>> result_value("FLQEFYQDDELGKK [_FLQEFYQDDELGK(Gluratylation)K_]")
517.26
>>> result_value("FGTINIVHPKLGSYTK [_FGTINIVHPK(Gluratylation)LGSYTK_]")
554.9
>>> result_value("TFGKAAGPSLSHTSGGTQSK [_TFGK(Gluratylation)AAGPSLSHTSGGTQSK_]")
518.15
>>> result_value("DAEAAEATAEGALKAEK [_DAEAAEATAEGALK(Gluratylation)AEK_]")
545.34
>>> result_value("IINEPTAAAIAYGLDKK [_IINEPTAAAIAYGLDK(Gluratylation)K_]")
565.52
>>> result_value("IVEKYGYTHLSAGELLR [_IVEK(Gluratylation)YGYTHLSAGELLR_]")
567.6
>>> result_value("VNVEAPDVNLEGLGGKLK [_VNVEAPDVNLEGLGGK(Gluratylation)LK_]")
550.01
>>> result_value("HELQANCYEEVKDR [_HELQANCYEEVK(Gluratylation)DR_]")
487.76
>>> result_value("VGIDTPDIDIHGPEGKLK [_VGIDTPDIDIHGPEGK(Gluratylation)LK_]")
542.69
>>> result_value("VTLEVGKVIQQGR [_VTLEVGK(Gluratylation)VIQQGR_]")
485.84
>>> result_value("DTGEKLTVAENEAETK [_DTGEK(Gluratylation)LTVAENEAETK_]")
527.35
>>> result_value("TQDQISNIKYHEEFEK [_TQDQISNIK(Gluratylation)YHEEFEK_]")
554.46
>>> result_value("DESFLGKLGGTLAR [_DESFLGK(Gluratylation)LGGTLAR_]")
488.45
>>> result_value("GEVGAGAGPGAQAGPSAKR [_GEVGAGAGPGAQAGPSAK(Gluratylation)R_]")
490.81
